B1: FAM189A2 (parent)
chain: PRCDLVDLGEGKICFCCEEFQPAK

variants of: B1; experiment: protein stability index of a GFP-peptide fusion (GPS, HEK-293T) (PSI 1-6); higher = more stable; details: c terminus: a fixed tail appended;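 further: lentivirally expressed fusions sorted by FACS into six bins by GFP to DsRed ratio, PSI derived from sequencing read proportions per bin multiplied by bin number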
Exercise: for every item that follows, state its recorded protein stability index.
Numbers only.

Reference set, count: 3
K12A ... 3.51
L8R ... 3.91
C14Y ... 2.46

Below is a list of variants. For each, state its recorded protein stability index.
1. D7R
2. L5D
3. E10H
4. V6I
5. D7G
6. C17K

[2.6, 3.95, 2.88, 2.49, 3.28, 3.64]

Which measured protein stability index value corresponds to "C3D" ?
3.53
